- test_target: Polyunsaturated fatty acid 5-lipoxygenase (Homo sapiens, UniProt P09917)
- protocol_text: Inhibition of 5-lipoxygenase in S100 supernatant assessed as inhibition of LTB4 production preincubated for 15 mins measured after 10 mins by HPLC method
pIC50: −log10 of the molar value.
Entry flag: true if pIC50 reaches 6; false if it does not.

* COc1ccc(/C=C2\SC(c3ccc(O)cc3)=NC2=O)cc1 | true

Request: I'd appreciate it if you could say whether `Cc1ccc(C2=NC(=O)/C(=C/c3cccc(Cl)c3)S2)cc1` has pIC50 at least equal to 6.
Response: true

Request: I'd appreciate it if you could say whether `O=C1/C(=C/C=C/c2ccco2)S/C(=N\c2ccccc2)N1c1ccccc1` has pIC50 at least equal to 6.
Response: false

* * *

Provide the reported pIC50 of each item.
- test_target: Polyunsaturated fatty acid 5-lipoxygenase (Homo sapiens, UniProt P09917)
- Sequence (P09917 whole entry): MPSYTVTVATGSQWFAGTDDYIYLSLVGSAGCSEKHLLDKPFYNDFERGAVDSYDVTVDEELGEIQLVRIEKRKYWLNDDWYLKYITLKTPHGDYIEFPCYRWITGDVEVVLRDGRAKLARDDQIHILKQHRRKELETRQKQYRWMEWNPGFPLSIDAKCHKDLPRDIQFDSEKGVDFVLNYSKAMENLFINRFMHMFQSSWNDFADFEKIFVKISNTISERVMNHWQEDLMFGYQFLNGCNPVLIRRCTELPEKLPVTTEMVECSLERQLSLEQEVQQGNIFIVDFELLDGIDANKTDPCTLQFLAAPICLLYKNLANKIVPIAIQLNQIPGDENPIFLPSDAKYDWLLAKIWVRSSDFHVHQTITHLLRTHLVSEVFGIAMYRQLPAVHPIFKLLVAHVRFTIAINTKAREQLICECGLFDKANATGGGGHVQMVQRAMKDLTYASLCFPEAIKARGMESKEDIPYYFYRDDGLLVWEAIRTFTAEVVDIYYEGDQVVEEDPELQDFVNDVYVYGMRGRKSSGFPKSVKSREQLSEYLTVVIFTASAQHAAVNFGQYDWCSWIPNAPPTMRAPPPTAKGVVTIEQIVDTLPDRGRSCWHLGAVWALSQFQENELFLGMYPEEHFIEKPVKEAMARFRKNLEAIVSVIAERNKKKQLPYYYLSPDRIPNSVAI
- protocol_text: Inhibition of 5-lipoxygenase in S100 supernatant assessed as inhibition of LTB4 production preincubated for 15 mins measured after 10 mins by HPLC method
Give bare numbers, as −log10 of the molar value.

- COc1ccc(/C=C2\SC(c3cccc(C(C)=O)c3)=NC2=O)cc1: 6.89
- COc1ccc(/C=C2\SC(c3ccc(Cl)cc3)=NC2=O)cc1: 7.05
- COC(=O)COc1ccc(/C=C2\SC(c3ccc(C)cc3)=NC2=O)cc1: 6.72
- COc1cc(/C=C2\SC(c3ccccc3)=NC2=O)cc(Cl)c1O: 5.52
- COc1ccc(/C=C2\SC(c3ccc(OC)cc3)=NC2=O)cc1: 5.40
- COc1ccc(OC)c(/C=C2\SC(c3ccc(C)cc3)=NC2=O)c1: 6.89

Hey, quick one: what's pIC50 for each of these?
1. COc1cc(/C=C2\SC(c3ccc(C)cc3)=NC2=O)cc(Cl)c1O
2. COc1ccc(/C=C2\SC(c3ccc(N)cc3)=NC2=O)cc1
3. CCOc1ccc(/C=C2\SC(c3ccccc3)=NC2=O)cc1
4. COc1ccc(/C=C2\SC(c3ccc(C)cc3)=NC2=O)c(OC)c1OC
5. COc1cccc(/C=C2\SC(c3ccccc3)=NC2=O)c1O
6. COc1ccc(/C=C2\SC(c3ccccc3)=NC2=O)cc1

Response:
[5.57, 6.20, 6.30, 6.40, 6.27, 6.82]

Hey, quick one: what's pIC50 for each of these?
1. CC(C)(C)c1ccc(/C=C2\SC(c3ccccc3)=NC2=O)cc1
2. O=C1N=C(c2ccccc2)S/C1=C\c1c2ccccc2cc2ccccc12
3. COc1ccc(/C=C2\SC(c3ccc(C)cc3)=NC2=O)cc1
4. COc1ccc(/C=C2\SC(c3ccc(C)cc3)=NC2=O)c(OC)c1
5. CCOc1cc(/C=C2\SC(c3ccc(C)cc3)=NC2=O)cc(Cl)c1O

Response:
1. 6.52
2. 6.52
3. 6.52
4. 6.01
5. 5.90

Hey, quick one: what's pIC50 for each of these?
1. O=C1N=C(c2ccc(Cl)cc2)S/C1=C\c1ccc(O)cc1
2. COc1ccc(/C=C2\SC(c3cccc(F)c3)=NC2=O)cc1
3. COc1cccc(/C=C2\SC(c3ccc(C)cc3)=NC2=O)c1O
4. COc1cc(Cl)cc(/C=C2\SC(c3ccccc3)=NC2=O)c1O

Response:
[6.96, 6.92, 5.89, 6.52]
